Target: T1, TRCW5 antigen (CD3δε-Fc-Avi) (biotinylated (site not stated))
T1 construct: also called recombinant CD3
T1 sequence (chain, as listed by the source mutant limits assumed): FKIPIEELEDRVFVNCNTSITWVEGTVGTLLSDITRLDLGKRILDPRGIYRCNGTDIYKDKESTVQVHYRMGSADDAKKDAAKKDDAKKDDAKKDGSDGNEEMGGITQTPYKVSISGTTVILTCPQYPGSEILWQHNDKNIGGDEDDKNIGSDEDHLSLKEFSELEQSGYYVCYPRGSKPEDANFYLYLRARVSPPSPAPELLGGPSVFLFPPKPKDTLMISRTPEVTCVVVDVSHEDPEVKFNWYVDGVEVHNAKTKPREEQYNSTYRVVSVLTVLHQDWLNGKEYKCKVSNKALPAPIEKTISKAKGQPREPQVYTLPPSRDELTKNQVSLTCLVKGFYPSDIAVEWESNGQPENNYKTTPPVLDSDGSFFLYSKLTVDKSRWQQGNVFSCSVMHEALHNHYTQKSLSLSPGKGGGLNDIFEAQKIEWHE
Assay: ELISA after heat
valueType: % Retained 60° C. (%)
Only the number, expressed in %, is required.

Some solved entries appear below for comparison.
binder="CD3B2086 (scFv) scFv: QVQLVQSGAEVKKPGSSVKVSCKASGYTFTRSTMHWVRQAPGQGLEWMGYINPSSAYTNYAQKFQGRVTLTADKSTSTAYMELSSLRSEDTAVYYCASPQVHYDYNGFPYWGQGTLVTVSSGGSEGKSSGSGSESKSTGGSEIVLTQSPATLSASPGERVTLSCSASSSVSYMNWYQQKPGTSPRRLIYDSSKLASGVPARFSGSGSGRDYTLTISSLEPEDFAVYYCQQWSRNPPTFGGGTKVEIK" recordednumber=96
binder="CD3B2034 (scFv) scFv: QVQLVQSGAEVKKPGSSVKVSCKASGYTFTRSTMHWVKQAPGQGLEWMGYINPSSAYTNYNQKFQGRVTLTADKSTSTAYMELSSLRSEDTAVYYCASPQVHYDYNGFPYWGQGTLVTVSSGGSEGKSSGSGSESKSTGGSEIVLTQSPATLSASPGERVTLSCSASSSVSYMNWYQQKPGQSPRRWIYDSSKLASGVPARFSGSGSGRDYTLTISSLEPEDFAVYYCQQWSRNPPTFGGGTKVEIK" recordednumber=103

Note to self: % Retained 60° C. recorded for CD3B2044 (scFv) scFv: QVQLVQSGAEVKKPGSSVKVSCKASGYTFTRSTMHWVRQAPGQGLEWIGYINPSSAYTNYNQKFQGRVTLTADKSTSTAYMELSSLRSEDTAVYYCASPQVHYDYNGFPYWGQGTLVTVSSGGSEGKSSGSGSESKSTGGSEIVLTQSPATLSASPGERVTLSCSASSSVSYMNWYQQKPGQSPRRWIYDSSKLASGVPARFSGSGSGRDYTLTISSLEPEDFAVYYCQQWSRNPPTFGGGTKVEIK was 102

Lookup result for CD3B2075 (scFv) scFv: QVQLVQSGAEVKKPGSSVKVSCKASGYTFTRSTMHWVRQAPGQGLEWIGYINPSSAYTNYAQKFQGRVTLTADKSTSTAYMELSSLRSEDTAVYYCASPQVHYDYNGFPYWGQGTLVTVSSGGSEGKSSGSGSESKSTGGSEIVLTQSPATLSASPGERVTLSCSASSSVSYMNWYQQKPGQSPRRLIYDSSKLASGVPARFSGSGSGRDYTLTISSLEPEDFAVYYCQQWSRNPPTFGGGTKVEIK ; measured % Retained 60° C.: 87

For CD3B2074 (scFv) scFv: QVQLVQSGAEVKKPGSSVKVSCKASGYTFTRSTMHWVRQAPGQGLEWIGYINPSSAYTNYAQKFQGRVTLTADKSTSTAYMELSSLRSEDTAVYYCASPQVHYDYNGFPYWGQGTLVTVSSGGSEGKSSGSGSESKSTGGSEIVLTQSPATLSASPGERVTLSCSASSSVSYMNWYQQKPGTSPRRWIYDSSKLASGVPARFSGSGSGRDYTLTISSLEPEDFAVYYCQQWSRNPPTFGGGTKVEIK the binder record lists % Retained 60° C. as 101
